molecular target: Glutamate receptor 2 (Homo sapiens, UniProt P42262); assay: Positive allosteric modulation of human GluA2 receptor flip isoform assessed as increase in glutamate-induced calcium flux measured at time interval of 5 mins in presence of saturating glycine by calcium dye-based fluorescence assay; format: Functional, single protein
Sequence (P42262 whole entry, canonical isoform): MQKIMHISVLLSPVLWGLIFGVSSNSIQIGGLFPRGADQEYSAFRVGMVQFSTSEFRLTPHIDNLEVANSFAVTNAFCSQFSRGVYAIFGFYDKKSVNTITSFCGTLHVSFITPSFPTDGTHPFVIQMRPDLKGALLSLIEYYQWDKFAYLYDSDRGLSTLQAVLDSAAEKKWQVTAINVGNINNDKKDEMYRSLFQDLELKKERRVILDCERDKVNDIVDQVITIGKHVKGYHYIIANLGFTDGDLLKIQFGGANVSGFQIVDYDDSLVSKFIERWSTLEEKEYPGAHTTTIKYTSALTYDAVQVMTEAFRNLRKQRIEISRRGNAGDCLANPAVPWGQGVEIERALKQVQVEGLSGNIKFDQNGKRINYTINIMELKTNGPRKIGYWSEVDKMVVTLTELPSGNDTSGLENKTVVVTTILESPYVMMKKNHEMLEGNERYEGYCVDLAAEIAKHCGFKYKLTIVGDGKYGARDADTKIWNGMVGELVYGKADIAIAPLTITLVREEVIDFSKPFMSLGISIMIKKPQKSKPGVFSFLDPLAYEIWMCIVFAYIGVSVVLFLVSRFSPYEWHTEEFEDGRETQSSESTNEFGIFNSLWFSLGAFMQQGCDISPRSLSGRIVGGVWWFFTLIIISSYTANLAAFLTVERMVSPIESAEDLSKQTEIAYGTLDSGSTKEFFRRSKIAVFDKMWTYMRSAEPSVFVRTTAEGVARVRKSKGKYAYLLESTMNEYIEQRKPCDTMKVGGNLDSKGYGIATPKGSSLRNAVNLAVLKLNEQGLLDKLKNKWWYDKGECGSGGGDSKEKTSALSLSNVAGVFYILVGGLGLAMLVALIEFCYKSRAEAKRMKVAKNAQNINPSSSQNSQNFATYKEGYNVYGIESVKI
reported_endpoint: EC50 (µM)
Provide only the numeric value, understood in µM.

Name the reported EC50 value associated with the compound `Cc1cc([C@@H]2C[C@H]2C#N)n2c(=O)cc(Cn3nc(C(F)(F)F)cc3Cl)nc2c1`
3.1

Given `COc1cc([C@@H]2C[C@H]2C#N)n2c(=O)cc(Cn3nc(C(F)(F)F)cc3Cl)nc2c1` , state its recorded EC50.
6.7

Look up EC50 for this compound: `N#C[C@@H]1C[C@H]1c1cccc2nc(Cn3nc(C(F)(F)F)cc3Cl)cc(=O)n12`
0.81

Sample `N#C[C@@H]1C[C@H]1c1c(F)ccc2nc(Cn3nc(C(F)(F)F)cc3Cl)cc(=O)n12` — what was its EC50?
3.1
